This document collects IC50 values reported for EGFR (Homo sapiens).
quantity name: IC50 (µM)

>  <molecule>
Cc1ccc(C2=NN(C(=O)c3ccc(S(C)(=O)=O)cc3)C(c3ccc(C)cc3)C2)cc1 (stereo not drawn) [Compound 18g]

>  <result units>
µM

>  <IC50>
1.02

$$$$

A = CS(=O)(=O)c1ccc(C(=O)N2N=C(c3ccccc3)CC2c2ccccc2O)cc1 (stereo not drawn) [Compound 18h]
B = CS(=O)(=O)c1ccc(C(=O)N2N=C(c3ccccc3)CC2c2ccc(F)cc2)cc1 (stereo not drawn) [Compound 18c]
INPUT: Hi team, can someone confirm which has the larger IC50: A or B ? Thanks. API: response body contains the label of the selected item.
OUTPUT: B
(B: 1.12 µM, A: 0.574 µM)
